- assay-details: Parallel artificial membrane permeability assay
- Assay type: in vitro ADME
- condition-label: PAMPA
parameter: passive membrane permeability (in words)

Here is how some molecules turned out for passive membrane permeability (in words).
[[record]]
line_notation = "N#Cc1ccc(COc2cccc(C(=O)Nc3ccc4c(c3)B(O)OC4)c2)cc1"
observed_value = "passive permeability"

[[record]]
line_notation = "O=C(Nc1ccc2c(c1)B(O)OC2)c1cccc(OCc2c(Cl)cccc2Cl)c1"
observed_value = "passive permeability"

[[record]]
line_notation = "O=S(=O)(Nc1ccc2c(c1)B(O)OC2)c1ccc(Cl)cc1"
observed_value = "passive permeability"

[[record]]
line_notation = "O=C(Nc1cccc(B(O)O)c1)c1cccc(OCc2ccccc2)c1"
observed_value = "passive permeability"


Consider the molecule `O=C(Nc1ccc2c(c1)B(O)OC2)c1ccc(Oc2ccccc2)cc1` and give its measured passive membrane permeability (in words).
passive permeability

Consider the molecule `O=C(Nc1ccc2c(c1)B(O)OC2)c1cccc(OCc2ccccc2)c1` and give its measured passive membrane permeability (in words).
passive permeability

Consider the molecule `O=C(Nc1ccc2c(c1)B(O)OC2)c1ccccc1OCc1ccccc1` and give its measured passive membrane permeability (in words).
passive permeability

Consider the molecule `O=C(Nc1ccc2c(c1)B(O)OC2)c1ccc(OCc2ccc(Cl)cc2)cc1` and give its measured passive membrane permeability (in words).
passive permeability

Values compiled from paper PMC9272583.
